# subjectOfTest: T1, nSR100 (Mus musculus, UniProt Q8BKA3)
# T1 construct: host or cells: mouse N2A cells
# T1 sequence (Q8BKA3 1-608): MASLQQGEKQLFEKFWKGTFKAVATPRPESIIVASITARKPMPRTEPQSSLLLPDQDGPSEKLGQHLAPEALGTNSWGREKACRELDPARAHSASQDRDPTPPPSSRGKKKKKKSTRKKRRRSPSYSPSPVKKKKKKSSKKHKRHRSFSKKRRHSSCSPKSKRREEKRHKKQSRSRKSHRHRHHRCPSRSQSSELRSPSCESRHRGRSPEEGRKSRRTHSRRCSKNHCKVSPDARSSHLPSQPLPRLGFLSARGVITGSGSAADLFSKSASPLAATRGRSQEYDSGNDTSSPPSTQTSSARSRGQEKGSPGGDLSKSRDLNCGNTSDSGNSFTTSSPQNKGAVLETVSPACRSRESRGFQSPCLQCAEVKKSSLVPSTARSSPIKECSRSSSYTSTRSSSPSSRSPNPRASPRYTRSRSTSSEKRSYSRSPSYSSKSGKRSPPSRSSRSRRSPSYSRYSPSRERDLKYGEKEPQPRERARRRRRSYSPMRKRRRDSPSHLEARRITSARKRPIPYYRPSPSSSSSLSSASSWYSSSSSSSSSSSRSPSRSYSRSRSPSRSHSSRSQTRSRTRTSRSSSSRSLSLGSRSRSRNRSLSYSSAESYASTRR
# methodDescription: AP-MS nSR100 interaction partners from mouse N2A cells (Table 5)
# Format: binding
# runParameters: bait Srrm4, 2 replicates
Collected AvgSpec (average number of spectra per replicate) values appear next to each entry.
No unit in the answer, please; the number alone is enough.

Below are worked cases with known answers.
>>> value("Sap18 (protein, UniProt O55128 2-153, looked up) Histone deacetylase complex …: AVESRVTQEEIKKEPEKPIDREKTCPLLLRVFTTNNGRHHRMDEFSRGNVPSSELQIYTWMDATLKELTSLVKEVYPEARKKGTHFNFAIVFMDLKRPGYRVKEIGSTMSGRKGTDDSMTLQSQKFQIGDYLDIAITPPNRAPPSSGRMRPY")
22.5
>>> value("Rnps1 (protein, UniProt Q99M28 1-305, looked up) RNA-binding protein with …: MDLSGVKKKSLLGVKENNKKSSTRAPSPTKRKDRSDEKSKDRSKDKGATKESSEKDRGRDKTRKRRSASSGSSSTRSRSSSTSSSGSSTSTGSSSGSSSSSASSRSGSSSTSRSSSSSSSSGSPSPSRRRHDNRRRSRSKSKPPKRDEKERKRRSPSPKPTKVHIGRLTRNVTKDHIMEIFSTYGKIKMIDMPVERMHPHLSKGYAYVEFENPDEAEKALKHMDGGQIDGQEITATAVLAPWPRPPPRRFSPPRRMLPPPPMWRRSPPRMRRRSRSPRRRSPVRRRSRSPGRRRHRSRSSSNSSR")
25.5

Quick one: AvgSpec (average number of spectra per replicate) for U2af1 (protein, UniProt Q9D883 2-239, looked up) Splicing factor U2AF 35 kDa …: AEYLASIFGTEKDKVNCSFYFKIGACRHGDRCSRLHNKPTFSQTIALLNIYRNPQNSSQSADGLRCAVSDVEMQEHYDEFFEEVFTEMEEKYGEVEEMNVCDNLGDHLVGNVYVKFRREEDAEKAVIDLNNRWFNGQPIHAELSPVTDFREACCRQYEMGECTRGGFCNFMHLKPISRELRRELYGRRRKKHRSRSRSRERRSRSRDRGRGGGGGGGGGGGRERDRRRSRDRERSGRF ?
23

Quick one: AvgSpec (average number of spectra per replicate) for Ywhaq (protein, UniProt P68254 1-245, looked up) 14-3-3 protein theta: MEKTELIQKAKLAEQAERYDDMATCMKAVTEQGAELSNEERNLLSVAYKNVVGGRRSAWRVISSIEQKTDTSDKKLQLIKDYREKVESELRSICTTVLELLDKYLIANATNPESKVFYLKMKGDYFRYLAEVACGDDRKQTIENSQGAYQEAFDISKKEMQPTHPIRLGLALNFSVFYYEILNNPELACTLAKTAFDEAIAELDTLNEDSYKDSTLIMQLLRDNLTLWTSDSAGEECDAAEGAEN ?
18

Quick one: AvgSpec (average number of spectra per replicate) for Snip1 (protein, UniProt Q8BIZ6 1-383, looked up) Smad nuclear-interacting …: MKAGKSERERSGRRRHRSGDALTTVVVKQERLSPEPVAHRRPDAPAASLSPPAAEPGHSGHRGSRARSPAKKKSKSSGRRSKSPRTKRSQSPHYPMVKVKQEREDHPRRGREDRQHREPSEQEHRRARNSERDRHRGHSRQGRSSDERPVSGQDRDRDSQNLQAQEEERDFHNARRREHRQQNESAGSEAQEVIPRPAGNRSKEVPVKEKPSFELSGALLEDTNTFRGVVIKYSEPPEARIPKKRWRLYPFKNDEVLPVMYIHRQSAYLLGRHRRIADIPIDHPSCSKQHAVFQYRLVEYTRADGTVGRRVKPYIIDLGSGNGTFLNNKRIEPQRYYELKEKDVLKFGFSSREYVLLHESSDTSELDRKEDEDDEEEEMVSDS ?
7
